Dear all, I have gathered published pIC50 values for Prostaglandin G/H synthase 2 (Homo sapiens); the list follows.
One number for each entry, as −log10 of the molar value.

Sample records with pIC50:
>  <input-smiles>
NS(=O)(=O)c1ccc(-n2nc(C(=O)NCCCN3CCOCC3)cc2-c2ccccc2)cc1

>  <system-name>
Prostaglandin G/H synthase 2 (Homo sapiens)

>  <pIC50>
6.38

$$$$
>  <input-smiles>
Cc1ccc(-c2cnnn2-c2ccc(S(C)(=O)=O)cc2)cc1

>  <system-name>
Prostaglandin G/H synthase 2 (Homo sapiens)

>  <pIC50>
6.92

$$$$
>  <input-smiles>
COc1ccc(/C=C/c2cc(OC)cc(OC)c2/C=C/C(=O)N2CCCCC2)cc1

>  <system-name>
Prostaglandin G/H synthase 2 (Homo sapiens)

>  <pIC50>
4.64

$$$$
>  <input-smiles>
CCOC(=O)/C(=C/c1cccc(F)c1)CSc1nncn1C

>  <system-name>
Prostaglandin G/H synthase 2 (Homo sapiens)

>  <pIC50>
5.41

$$$$

Go through the list and state pIC50 for each entry.
1. O=C(O[C@@H]1[C@@H](c2c(O)cc(O)c3c2O[C@H](c2cc(O)c(O)c(O)c2)[C@H](OC(=O)c2cc(O)c(O)c(O)c2)C3)c2c(O)cc(O)c([C@H]3c4c(O)cc(O)cc4O[C@H](c4cc(O)c(O)c(O)c4)[C@@H]3OC(=O)c3cc(O)c(O)c(O)c3)c2O[C@@H]1c1cc(O)c(O)c(O)c1)c1cc(O)c(O)c(O)c1
2. CS(=O)(=O)c1ccc(-c2cc(CC#N)sc2-c2ccc(F)cc2)cc1

5.35
4.31

----------
system-name: Prostaglandin G/H synthase 2 (Homo sapiens, UniProt P35354)
Sequence (P35354 whole entry): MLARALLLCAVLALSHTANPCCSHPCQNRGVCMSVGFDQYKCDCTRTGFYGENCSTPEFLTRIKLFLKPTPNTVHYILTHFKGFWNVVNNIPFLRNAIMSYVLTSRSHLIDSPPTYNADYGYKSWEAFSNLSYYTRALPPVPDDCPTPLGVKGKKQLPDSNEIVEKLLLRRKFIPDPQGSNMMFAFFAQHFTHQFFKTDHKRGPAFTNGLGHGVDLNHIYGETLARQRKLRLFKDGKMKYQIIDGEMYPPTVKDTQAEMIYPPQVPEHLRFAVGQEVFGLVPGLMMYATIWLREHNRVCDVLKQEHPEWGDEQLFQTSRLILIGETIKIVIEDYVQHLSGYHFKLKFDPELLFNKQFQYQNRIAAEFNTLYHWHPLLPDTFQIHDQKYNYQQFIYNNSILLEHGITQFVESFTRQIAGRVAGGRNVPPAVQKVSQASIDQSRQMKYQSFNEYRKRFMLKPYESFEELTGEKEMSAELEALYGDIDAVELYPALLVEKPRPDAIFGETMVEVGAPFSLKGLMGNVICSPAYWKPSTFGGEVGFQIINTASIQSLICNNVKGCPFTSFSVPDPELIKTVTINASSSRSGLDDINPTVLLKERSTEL
Please find below IC50 data on Prostaglandin G/H synthase 2 (Homo sapiens, UniProt P35354) compiled from the literature.
One number for each entry, in µM.

>  <molecule>
COc1ccc(-c2nc(C(=O)N3CCN(C)CC3)sc2-c2ccc(OC)cc2)cc1

>  <IC50 [µM]>
65

$$$$
>  <molecule>
CS(=O)(=O)c1ccc(-c2cc(N)sc2-c2ccc(F)cc2)cc1

>  <IC50 [µM]>
3

$$$$
>  <molecule>
O=C(COc1cc(O)c2c(=O)cc(-c3ccccc3)oc2c1)OCc1cc(-c2cccc(C(F)(F)F)c2)n(-c2ccccc2)n1

>  <IC50 [µM]>
4.79

$$$$
>  <molecule>
CC(=O)Oc1ccccc1C(=O)OC(CO[N+](=O)[O-])CO[N+](=O)[O-]

>  <IC50 [µM]>
7.7

$$$$
>  <molecule>
O=C1CSC(N2N=C(c3ccc(Cl)c(Cl)c3)CC2c2ccccc2Cl)=N1 (stereo not given)

>  <IC50 [µM]>
18.4

$$$$
>  <molecule>
c1cncc(-n2cc(CSc3nc4ccccc4o3)nn2)c1

>  <IC50 [µM]>
3.98

$$$$
>  <molecule>
Cc1ccc(-n2nc(COC(=O)COc3cc(O)c4c(=O)cc(-c5ccccc5)oc4c3)cc2-c2ccc(Cl)cc2)cc1

>  <IC50 [µM]>
2.12

$$$$
>  <molecule>
CCCCC/C=C\C/C=C\C/C=C\C/C=C\CCCC(=O)Nc1ccc(-c2ccc(NC(=O)Cc3onc(-c4ccc(OC)cc4)c3-c3ccc(OC)cc3)cc2)cc1

>  <IC50 [µM]>
0.09

$$$$
>  <molecule>
COc1ccc(C2SCC(=O)N2CCN2C(=O)CSC2c2ccc(OC)cc2)cc1 (stereo not given)

>  <IC50 [µM]>
1.12

$$$$
>  <molecule>
COc1ccc(Nc2nc(-c3ccc(OC)cc3)cs2)cc1

>  <IC50 [µM]>
1.37

$$$$

Provide each entry's IC50 from the list below.
1. COc1ccc(/C=C/c2cc(OC)cc(OC)c2/C=C/C(=O)NC2CCCCC2)cc1
2. Cc1nc(-c2ccc(F)cc2)c(-c2ccc(S(N)(=O)=O)c(F)c2)o1
3. Cc1ccc2oc(=O)cc(CSc3nnc(CSc4nc5cc(Cl)ccc5o4)o3)c2c1
4. CN(c1ccc(O)cc1)c1nc(-c2ccc(Cl)cc2)cs1
5. O=C(NCCc1c[nH]c2ccccc12)c1ccccc1Nc1ccc(Br)cc1

1. 5.09
2. 0.04
3. 115
4. 1.08
5. 5.68

----------
Assay read-out IC50 on Prostaglandin G/H synthase 2 (Homo sapiens, UniProt P35354); records merged from the literature.
Answers are plain numbers, in µM.

The examples below pair each entry with its known result.
>  <compound>
O=C1CSC(N2N=C(c3ccc(Cl)c(Cl)c3)CC2c2ccccc2)=N1 (stereo not given)

>  <IC50, µM>
2.7

$$$$
>  <compound>
COc1ccc2c(c1)c(Cc1nc(-c3ccc(Cl)cc3)cs1)c(C)n2C(=O)c1ccc(Br)cc1

>  <IC50, µM>
0.007

$$$$
>  <compound>
CCC1CCCCN1C(=O)/C=C/c1c(/C=C/c2ccc(OC)cc2)cc(OC)cc1OC (stereo not given)

>  <IC50, µM>
10.3

$$$$
>  <compound>
COc1ccc2c(c1)c(CC(=O)N[C@@H](CO)CCSC)c(C)n2C(=O)c1ccc(Cl)cc1

>  <IC50, µM>
0.25

$$$$
>  <compound>
CCOC(=O)c1nc(-c2ccc(F)cc2)c(-c2ccc(S(C)(=O)=O)cc2)s1

>  <IC50, µM>
0.61

$$$$
>  <compound>
CC1=Nc2c(/N=N/c3ccc(O)cc3)c(N)nn2C1=O

>  <IC50, µM>
295

$$$$

For every record below, what is its IC50?
1. COc1ccc(Nc2ccccc2C(=O)NCCc2c[nH]c3ccccc23)cc1
2. Cc1cc(=O)n2nc(N)c(/N=N/c3ccc(O)cc3)c2[nH]1
3. CCOc1ccc(-c2cc(Cl)cc3c2OC(C(F)(F)F)C(C(=O)O)=C3)cc1 (stereo not given)
4. Oc1cc(O)cc(-c2cc3ccc(O)cc3o2)c1

1. 6.21
2. 5.68
3. 0.355
4. 22.3

----------
Collected literature values of IC50 measured for Prostaglandin G/H synthase 2 (Homo sapiens, UniProt P35354).
One number for each entry, in µM.

Below, each entry is followed by its recorded IC50 result.
>  <compound>
CCOC(=O)CCc1cc(-c2ccc(S(C)(=O)=O)cc2)c(-c2ccc(F)cc2)s1

>  <units>
µM

>  <reported-measurement>
130

$$$$
>  <compound>
NS(=O)(=O)c1ccc(C2=C(c3ccccc3)C(=O)NC2=O)cc1

>  <units>
µM

>  <reported-measurement>
15.6

$$$$
>  <compound>
CS(=O)(=O)Nc1ccncc1Nc1ccccc1Cl

>  <units>
µM

>  <reported-measurement>
9.38

$$$$
>  <compound>
Cc1ccc(C2=NN(C3=NC(=O)CS3)C(c3ccc(F)cc3)C2)cc1C (configuration not stated)

>  <units>
µM

>  <reported-measurement>
6.4

$$$$

Please report IC50 for every entry that follows.
1. NS(=O)(=O)c1ccc(-n2cnc(Cl)c2-c2ccc(OCCO)c(F)c2)cc1
2. O=C(NCCc1c[nH]c2ccccc12)c1ccc(O)cc1O
3. COc1ccc(-c2sccc2-c2ccc(S(C)(=O)=O)cc2)cc1
4. O=C1CSC(N2N=C(c3ccc(Cl)c(Cl)c3)CC2c2ccc(Br)cc2)=N1 (configuration not stated)
5. O=C(O)C1=Cc2cc(Cl)cc(-c3ccccc3)c2OC1C(F)(F)F (configuration not stated)
6. O=C1OC(=O)C(c2ccc3c(c2)OCO3)=C1c1ccccc1
7. Cc1c(Cl)cccc1Nc1ccccc1C(=O)NCCc1c[nH]c2ccccc12
8. CSc1ccc(-c2cscc2-c2ccc(SC)cc2)cc1

20
25
5
7.6
0.11
18.5
14.5
101

For each listed entry, give its IC50.
1. CC(C)(C)c1cc(/C=N/NC(=O)c2ccccc2)c(O)c(C(C)(C)C)c1
2. CCOc1ccc(-c2cc(C(=O)NCCCN3CCOCC3)nn2-c2ccc(S(N)(=O)=O)cc2)cc1
3. NS(=O)(=O)c1ccc(-n2nc(C(=O)OCCCN3CCOCC3)cc2-c2ccc(Cl)cc2)cc1
4. COc1ccc2c(c1)c(Cc1nc(-c3ccc(Br)cc3)cs1)c(C)n2C(=O)c1ccc(Br)cc1

6.49
0.91
5.47
0.03
